- System: HSP100
- ASSAY_TEXT: HSP expression induction suppression by 2-dimensional electrophoresis, HSP100
- Assay type: cell-based
- Parameters: key: ↑↑↑: Not Suppressed (Strongly Induced); ↓: Slightly Suppressed; ↓↓: Suppressed; ↓↓↓: Strongly Suppressed
- APPLIED_CONDITIONS: 100 μM; COLO320DM cells; compared with DMSO control
MEASURED_METRIC: HSP Induction by Heat Shock Treatment, HSP100

COMPOUND	VALUE_REPORTED
O=C1NCCC/C1=C\c1ccc2c(c1)OCO2	↓↓↓
O=c1c(O)c(-c2ccc(O)c(O)c2)oc2cc(O)cc(O)c12 [Quercetin, quercetin, reference compound]	↓
O=C1NCC/C1=C\c1ccc2c(c1)OCO2	↓↓↓
O=CN1CC/C(=C\c2ccc3c(c2)OCO3)C1=O	↓↓↓

Values from patent US6903116B2
